Reported IC50 values, Disintegrin and metalloproteinase domain-containing protein 17 (Homo sapiens).

Worked cases, answers included:
Compound	Measurement Name	Reported
CC#CCOc1ccc([S@+]([O-])[C@H](CCCCCC)C(=O)NO)cc1	IC50	12 nM
CC#CCOc1ccc([S@@](=O)[C@H](C(=O)NO)c2ccccc2)cc1	IC50	74 nM
CC#CCOc1ccc(S(=O)(=O)C2(C(=O)NO)CCN(CC)CC2)cc1	IC50	80 nM

compound CC#CCOc1ccc(S(=O)(=O)C(CCCCCC)C(=O)NO)cc1 (centres undefined) , IC50 observed: 75 nM

For reference, reported IC50 for CCCCCC[C@@H](C(=O)NO)[S@@+]([O-])c1ccc(OC)cc1 (relative stereo) stands at 375 nM

For this compound ( CC#CCOc1ccc(S(=O)(=O)C(C(=O)NO)c2ccccc2)cc1 (centres undefined) ), measured IC50 is 94 nM

Field IC50 (entry C#CCOc1ccc(S(=O)(=O)C2(C(=O)NO)CCN(Cc3ccccc3)CC2)cc1 ) reads 69 nM

# IC50 (compound: CCCCCC[C@@H](C(=O)NO)[S@+]([O-])c1ccc(OC)cc1 (relative stereo) ) is 30 nM

compound CC#CCOc1ccc([S@@+]([O-])[C@@H](CCCCCC)C(=O)NO)cc1 , IC50 observed: 4 nM

====

Readings of pIC50 for the listed compounds
target: Matrix metalloproteinase-9 (Homo sapiens, UniProt P14780)
Sequence (P14780 whole entry): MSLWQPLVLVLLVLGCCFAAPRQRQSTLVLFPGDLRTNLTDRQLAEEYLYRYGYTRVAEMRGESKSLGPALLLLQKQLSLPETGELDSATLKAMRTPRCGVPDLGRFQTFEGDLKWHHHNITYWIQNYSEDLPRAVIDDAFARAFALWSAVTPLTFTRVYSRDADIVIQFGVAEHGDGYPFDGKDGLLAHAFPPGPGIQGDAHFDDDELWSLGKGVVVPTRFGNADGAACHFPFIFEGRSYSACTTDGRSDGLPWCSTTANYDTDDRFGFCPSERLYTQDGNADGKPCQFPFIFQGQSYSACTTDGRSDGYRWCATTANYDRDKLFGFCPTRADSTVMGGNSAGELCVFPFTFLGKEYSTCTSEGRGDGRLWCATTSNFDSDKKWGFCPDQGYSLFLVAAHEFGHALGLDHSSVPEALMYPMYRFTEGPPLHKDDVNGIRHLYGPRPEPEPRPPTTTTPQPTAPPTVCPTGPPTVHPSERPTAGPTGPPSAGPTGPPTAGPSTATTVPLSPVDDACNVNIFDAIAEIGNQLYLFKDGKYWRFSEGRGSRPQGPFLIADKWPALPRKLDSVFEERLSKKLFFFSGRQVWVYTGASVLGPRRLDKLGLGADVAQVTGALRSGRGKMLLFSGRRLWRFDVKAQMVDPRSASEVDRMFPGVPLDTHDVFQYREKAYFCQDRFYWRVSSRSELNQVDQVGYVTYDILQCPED
In textbook form, pIC50 equals minus log to base ten of the concentration in mol/L.

Compound	pIC50
CC#CCOc1ccc([S@@+]([O-])[C@@H](CCCCCC)C(=O)NO)cc1	5.82
CC#CCOc1ccc([S@+]([O-])[C@H](CCCCCC)C(=O)NO)cc1	6.00
CC#CCOc1ccc(S(=O)(=O)C(CCCCCC)C(=O)NO)cc1 (configuration not stated)	5.60
CCCCCC[C@@H](C(=O)NO)[S@+]([O-])c1ccc(OC)cc1 (relative stereo)	6.73
CC#CCOc1ccc(S(=O)(=O)C(C(=O)NO)c2ccccc2)cc1 (configuration not stated)	6.91
CC#CCOc1ccc([S@@+]([O-])[C@H](C(=O)NO)C(C)C)cc1	6.40
C#CCOc1ccc(S(=O)(=O)C2(C(=O)NO)CCN(Cc3ccccc3)CC2)cc1	7.74

# ---- query compound ----
pIC50 in this record for CC#CCOc1ccc(S(=O)(=O)C(C(=O)NO)C(C)C)cc1 (configuration not stated) : 5.90

====

target: Collagenase 3 (Homo sapiens); experiment: Inhibition of MMP13 at 10 uM
Everything with inhibition lower than 60% is not satisfied; everything else, including exactly 60%, is satisfied.

Worked cases, answers included:
Compound	Experimental System	Class Label
CCCCCCC(Sc1ccc(OC)cc1)C(=O)NO (stereo unspecified)	Collagenase 3 (Homo sapiens)	not satisfied
O=C(NO)C1(S(=O)(=O)c2ccc(OCC#CCN3CCOCC3)cc2)CCN(Cc2ccc(Br)cc2)CC1	Collagenase 3 (Homo sapiens)	satisfied
CCC#CCOc1ccc(S(=O)(=O)C2(C(=O)NO)CCN(Cc3ccc(Br)cc3)CC2)cc1	Collagenase 3 (Homo sapiens)	not satisfied

Is reported inhibition greater than or equal to 60% here: CC#CCOc1ccc(S(=O)(=O)C2(C(=O)NO)CCN(Cc3ccc(Cl)cc3)CC2)cc1
not satisfied

Confirm if inhibition reported for the compound CC#CCOc1ccc(SC2(C(=O)OCC)CCN(C(=O)OC(C)(C)C)CC2)cc1 is 60% or above.
not satisfied

====

So I've got IC50 readings for Interstitial collagenase (Homo sapiens, UniProt P03956), take a look.

Some compounds with recorded IC50:
Compound	Reported
CC#CCOc1ccc(SC(CCCCCC)C(=O)NO)cc1 (stereo unspecified)	> 10 µM
CC#CCOc1ccc(S(=O)(=O)C(C(=O)NO)C2CCCCC2)cc1 (stereo unspecified)	> 10 µM
CC#CCOc1ccc(S(=O)(=O)C(C(=O)NO)C(C)C)cc1 (stereo unspecified)	5.14 µM
CC#CCOc1ccc(S(=O)(=O)C(C(=O)NO)C2CCOCC2)cc1 (stereo unspecified)	> 10 µM
CC#CCOc1ccc([S+]([O-])C(C(=O)NO)c2ccc(OC)cc2)cc1 (single isomer, unassigned)	> 10 µM
CC#CCOc1ccc(S(=O)(=O)C(CCCCCC)C(=O)NO)cc1 (stereo unspecified)	> 10 µM

Measured IC50, CC#CCOc1ccc(S(=O)(=O)C(C(=O)NO)C2CCN(C(=O)C3CC3)CC2)cc1 (stereo unspecified) : > 10 µM

Given item CC#CCOc1ccc(SC(C(=O)NO)c2ccc(OC)cc2)cc1 (stereo unspecified) , the value recorded as its IC50 is > 10 µM

Value of measured IC50 for the entry CC#CCOc1ccc([S@@+]([O-])[C@@H](CCCCCC)C(=O)NO)cc1 : 3 µM

GET /value?item= CC#CCOc1ccc([S@@+]([O-])[C@H](C(=O)NO)C(C)C)cc1 &field=IC50 returns 6.48 µM

Value of IC50 reported for the compound CC#CCOc1ccc(S(=O)(=O)C(C(=O)NO)C2CC[S+]([O-])CC2)cc1 (stereo unspecified) is > 10 µM

// recorded IC50 for CC#CCOc1ccc(S(=O)(=O)C2(C(=O)NO)CCN(Cc3ccccc3)CC2)cc1 : 2.64 µM

Record C#CCOc1ccc(S(=O)(=O)C2(C(=O)NO)CCN(Cc3ccccc3)CC2)cc1 . Reported IC50: 0.096 µM

Reported IC50 ( CC#CCOc1ccc([S+]([O-])C(C(=O)NO)c2ccccc2)cc1 (single isomer, unassigned) ) = > 10 µM

The recorded IC50 for entry CC#CCOc1ccc([S@@](=O)[C@H](C(=O)NO)c2ccc(OC)cc2)cc1 equals > 10 µM

The value of IC50 measured for the compound CC#CCOc1ccc(S(=O)(=O)C2(C(=O)NO)CCN(Cc3ccc(Br)cc3)CC2)cc1 turned out to be 3.37 µM

Given item CC#CCOc1ccc(S(=O)(=O)C(C(=O)NO)c2ccc(OC)cc2)cc1 (stereo unspecified) , the value recorded as its IC50 is > 10 µM

// IC50 value for CC#CCOc1ccc(S(=O)(=O)C(C(=O)NO)C2CCNCC2)cc1 (stereo unspecified) : > 10 µM

compound CCCCCC[C@@H](C(=O)NO)[S@@+]([O-])c1ccc(OC)cc1 (relative stereo) , IC50 observed: 1.51 µM

// IC50 value for CC#CCOc1ccc(S(=O)(=O)C(C(=O)NO)C2CCSCC2)cc1 (stereo unspecified) : > 10 µM

# IC50 (compound: CCCCCC[C@@H](C(=O)NO)[S@+]([O-])c1ccc(OC)cc1 (relative stereo) ) is 1.15 µM

====

Reported pIC50 values for the following compounds.
target: Collagenase 3 (Homo sapiens, UniProt P45452)
Answer as the number alone; pIC50 is minus log10 of concentration in mol/L.

Some compounds with recorded pIC50:
Compound	pIC50
CCCCCC[C@@H](C(=O)NO)[S@@+]([O-])c1ccc(OC)cc1 (relative stereo)	7.74
CC#CCOc1ccc(S(=O)(=O)C(C(=O)NO)c2ccc(OC)cc2)cc1 (centres undefined)	5.43
CC#CCOc1ccc(S(=O)(=O)C(C(=O)NO)C(C)C)cc1 (centres undefined)	6.97
CCCCOc1ccc(S(=O)(=O)C2(C(=O)NO)CCN(Cc3ccc(Br)cc3)CC2)cc1	8.30
CC#CCOc1ccc(S(=O)(=O)C(C(=O)NO)c2ccccc2)cc1 (centres undefined)	7.17
C#CCOc1ccc(S(=O)(=O)C2(C(=O)NO)CCN(Cc3ccc(Br)cc3)CC2)cc1	8.52

Shift focus to the following entry.
// compound CC#CCOc1ccc(SC(C(=O)NO)C2CCCCC2)cc1 (centres undefined) , assay Collagenase 3 (Homo sapiens, UniProt P45452), pIC50 value: 5.70

====

molecular target: Disintegrin and metalloproteinase domain-containing protein 17 (Homo sapiens)
Sequence (P78536 whole entry, the tested form may be a part): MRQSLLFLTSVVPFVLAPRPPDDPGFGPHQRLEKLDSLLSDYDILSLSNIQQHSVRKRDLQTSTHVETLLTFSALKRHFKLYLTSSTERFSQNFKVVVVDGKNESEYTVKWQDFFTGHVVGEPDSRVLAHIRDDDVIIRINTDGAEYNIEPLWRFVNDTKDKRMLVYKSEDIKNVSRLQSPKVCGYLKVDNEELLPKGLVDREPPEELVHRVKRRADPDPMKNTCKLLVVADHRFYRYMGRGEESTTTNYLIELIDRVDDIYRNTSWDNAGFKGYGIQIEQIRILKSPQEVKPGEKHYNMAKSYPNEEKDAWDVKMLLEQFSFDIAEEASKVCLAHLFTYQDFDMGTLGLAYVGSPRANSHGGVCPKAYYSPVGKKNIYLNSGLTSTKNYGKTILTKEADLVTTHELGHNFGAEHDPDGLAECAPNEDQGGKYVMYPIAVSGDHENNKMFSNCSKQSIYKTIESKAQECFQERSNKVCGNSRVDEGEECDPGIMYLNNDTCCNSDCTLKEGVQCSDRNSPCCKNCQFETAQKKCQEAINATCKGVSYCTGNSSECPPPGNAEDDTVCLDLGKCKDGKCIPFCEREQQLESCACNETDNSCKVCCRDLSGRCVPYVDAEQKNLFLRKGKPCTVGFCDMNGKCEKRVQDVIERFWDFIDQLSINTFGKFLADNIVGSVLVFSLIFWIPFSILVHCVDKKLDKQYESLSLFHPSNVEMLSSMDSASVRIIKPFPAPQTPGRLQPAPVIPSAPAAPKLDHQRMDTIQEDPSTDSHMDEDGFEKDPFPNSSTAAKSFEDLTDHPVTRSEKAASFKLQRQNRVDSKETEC
The label Y is reserved for IC50 strictly under 0.05 µM; N covers values equal to or above it.

Below are worked cases with known answers.
Molecule	Class Label
CC#CCOc1ccc(S(=O)(=O)C(C(=O)NO)C2CCN(C(C)=O)CC2)cc1 (centres undefined)	N
CCCCOc1ccc(S(=O)(=O)C2(C(=O)NO)CCN(Cc3ccc(Br)cc3)CC2)cc1	N

Hello, I'm reviewing records and need to know if IC50 of CC#CCOc1ccc([S+]([O-])C(C(=O)NO)c2ccc(OC)cc2)cc1 (single isomer, unassigned) is below 0.05 µM. Could you check?
Y

Given the entry CC#CCOc1ccc([S@@](=O)[C@H](C(=O)NO)c2ccc(OC)cc2)cc1 , would its reported IC50 be below 0.05 µM?
Y

I wonder whether CC#CCOc1ccc(S(=O)(=O)C(C(=O)NO)C2CCN(C(=O)C3CC3)CC2)cc1 (centres undefined) has IC50 below 0.05 µM. Can you tell?
N

Below 0.05 µM on IC50? Entry CC#CCOc1ccc(S(=O)(=O)C(C(=O)NO)C2CCN(C(=O)c3ccccc3)CC2)cc1 (centres undefined)
N

I wonder whether CC#CCOc1ccc(S(=O)(=O)C(C(=O)NO)C2CCSCC2)cc1 (centres undefined) has IC50 below 0.05 µM. Can you tell?
N

A record lists CC#CCOc1ccc(S(=O)(=O)C(C(=O)NO)C2CC[S+]([O-])CC2)cc1 (centres undefined) . Is its IC50 below 0.05 µM?
Y

Regarding CC#CCOc1ccc(S(=O)(=O)C(C(=O)NO)c2ccc(OC)cc2)cc1 (centres undefined) , kindly confirm whether its IC50 is beneath 0.05 µM.
N
